Value source: PubChem BioAssay (NCI)

Each record here notes measured growth.
tested on: RXF 393 renal; assay: NCI-60 one-dose screen, 48 h (100 = growth as untreated, 0 = no growth, -100 = all killed); conditions: 10 µM unless noted
Compounds without any hit were thinned out: in the full panel of roughly 83,000, 20% have a hit.
Return type: number; implicit unit %.

Solved entries (count: 10):
compound: O=S(=O)(NCCCNc1nccc(-c2[nH]c(-c3ccccc3)nc2-c2ccc(Cl)c(O)c2)n1)c1ccc(Br)cc1
growth / %: -6.2
--
compound: COc1ccc(N2C(=O)c3cc(Cl)ccc3NC2SCc2ccccc2)cc1 (stereo not drawn)
growth / %: 101
--
compound: COc1ccc([C@@H]2[C@@H](O)C(=O)N2c2cc(OC)c(OC)c(OC)c2)cc1F
growth / %: 24.9
--
compound: COc1ccc(-c2nc3cc(Cl)c(Cl)cc3n2CC(=O)N=Nc2c(O)[nH]c3ccc(OC)cc23)cc1
growth / %: -29.8
--
compound: NS(=O)(=O)c1ccc(Nc2nc(Nc3ccccc3)nc3nnc(SCC(=O)NC4CCCCC4)n23)cc1
growth / %: 126
--
compound: Cc1ccc(-n2cc(/C=N/NC(=O)c3nc(N)n[nH]3)c(-c3ccc(S(C)(=O)=O)cc3)n2)cc1
growth / %: 117
--
compound: NS(=O)(=O)c1ccc(Nc2nc(SCC(=O)c3ccc(Cl)cc3)nc3c2CCCC3)cc1
growth / %: 35.6
--
compound: NC(N)=Nc1ccc(Oc2cccc(Nc3ccc(Br)c(C(F)(F)F)c3)c2)cc1
growth / %: 40.7
--
compound: Nc1ncc(-c2ccc3ncnc(N4CCc5cc(F)c(Cl)cc54)c3c2)cn1
growth / %: -47.5
--
compound: Cc1ccc(-c2cc3nc(C(Cl)Cl)nc(-c4ccco4)n3n2)cc1
growth / %: -46.1

growth lookup needed for C=CC(=O)N1CCC=C(c2cc3c(N[C@H](C)c4ccccc4)ncnc3[nH]2)C1 , thanks. -17

Now the compound NC/C(=C/F)COc1ccc2nc(NCc3cccnc3)oc2c1 66.9

Request: O=S(=O)(Nc1ccc2c(c1)OCO2)c1ccc(-c2cnc(C3CC3)o2)cc1 34.9

Try the compound Cc1nn(-c2ccccc2)c2ncnc(N/N=C/c3ccccc3O)c12 -20.4

Same again, this time with CCN(CC)c1ccc(NC2=C(Cl)C(=O)c3nc(C)ccc3C2=O)cc1 -95.1

* * *

System: MALME-3M melanoma
Experiment: NCI-60 one-dose screen, 48 h (100 = growth as untreated, 0 = no growth, -100 = all killed)
Conditions: 10 µM unless noted
Description: Cells are grown in 96 well plates and exposed to the test compound for 48 hours. Compounds are tested at a single concentration, which is 10^-5 M for most compounds. The reported endpoint is percent growth (GI% or GIPRCNT), where numbers from 0 - 100% represent growth inhibition, and numbers from -100% - 0 represent cell death. For example, a value of 40 represents 60% growth inhibition. A value of 0 means no net growth occurred over the course of the experiment. […]
The panel holds about 83,000 compounds, 20% with a hit somewhere; the sample as a whole holds those more often.
property-measured: growth (%)
// return numeric value only (unit: %, not printed)

Some solved cases for reference:
molecule: COc1cc(Cn2cc3c(c2)-c2onc(CN4CCCC4)c2CC3)cc(OC)c1OC
measured-value: 66.5
--
molecule: c1ccc(C(c2nc3ncncc3[nH]2)N2CSc3nc4ccccc4n3C2)cc1 (configuration not stated)
measured-value: 81.1
--
molecule: COc1cc(OC)c(S(N)(=O)=O)cc1C(C)=O
measured-value: 109

Can you look up growth on MALME-3M melanoma for O=C(NCCN1CCCC1)c1ccc(-c2nc3ccc4[nH]ncc4c3c3c2CCCC3)cc1 ? -2.3

# iterate: COc1cc(OC)c(S(N)(=O)=O)cc1C(=O)/C=C/c1ccc(C)cc1 72.9

What would you report for Nc1ncc(-c2ccc3ncnc(N4CCc5cc(F)c(Cl)cc54)c3c2)cn1 ? 33.6

Moving on to CCNC(=O)Oc1ccc(/C(=C(/C)c2ccccc2)c2ccc(OCCN3CCCCCC3)cc2)cc1 -70.8

Request: Cc1ccc2c(c1)C13C(=C2Br)CCCN1C(=O)c1ccccc13 (configuration not stated) 85.3

Consider next the molecule C=C(C)[C@@H]1CC[C@]2(COCCCNCCC#N)CC[C@]3(C)[C@H](CC[C@@H]4[C@@]5(C)CC[C@H](OCCCNCCC#N)C(C)(C)[C@@H]5CC[C@]43C)[C@@H]12 in the same way. 72.4

Thanks! And COc1cc(OC)c(/C=C/S(=O)(=O)Cc2ccc(OC)c(NC(=O)CCC(=O)NO)c2)c(OC)c1 ? 64.1

Input COc1ccc2c(c1)c(CC(=O)[Se]CCC#N)c(C)n2C(=O)c1ccc(Cl)cc1 -68.3

And for Nc1ccccc1NC(=O)c1ccc(NC(=O)C/C=C/c2cccnc2)cc1 ? 18.1

Same again, this time with COc1ccc([C@@H]2c3[nH]c4ccccc4c3C[C@H]3C(=O)N(C4CCN(CC5CCCCC5)CC4)CC(=O)N23)c(OC)c1 95.7
